# assayed system: High affinity nerve growth factor receptor (Homo sapiens) (UniProt P04629)
# Sequence (P04629 33-796 limits assumed): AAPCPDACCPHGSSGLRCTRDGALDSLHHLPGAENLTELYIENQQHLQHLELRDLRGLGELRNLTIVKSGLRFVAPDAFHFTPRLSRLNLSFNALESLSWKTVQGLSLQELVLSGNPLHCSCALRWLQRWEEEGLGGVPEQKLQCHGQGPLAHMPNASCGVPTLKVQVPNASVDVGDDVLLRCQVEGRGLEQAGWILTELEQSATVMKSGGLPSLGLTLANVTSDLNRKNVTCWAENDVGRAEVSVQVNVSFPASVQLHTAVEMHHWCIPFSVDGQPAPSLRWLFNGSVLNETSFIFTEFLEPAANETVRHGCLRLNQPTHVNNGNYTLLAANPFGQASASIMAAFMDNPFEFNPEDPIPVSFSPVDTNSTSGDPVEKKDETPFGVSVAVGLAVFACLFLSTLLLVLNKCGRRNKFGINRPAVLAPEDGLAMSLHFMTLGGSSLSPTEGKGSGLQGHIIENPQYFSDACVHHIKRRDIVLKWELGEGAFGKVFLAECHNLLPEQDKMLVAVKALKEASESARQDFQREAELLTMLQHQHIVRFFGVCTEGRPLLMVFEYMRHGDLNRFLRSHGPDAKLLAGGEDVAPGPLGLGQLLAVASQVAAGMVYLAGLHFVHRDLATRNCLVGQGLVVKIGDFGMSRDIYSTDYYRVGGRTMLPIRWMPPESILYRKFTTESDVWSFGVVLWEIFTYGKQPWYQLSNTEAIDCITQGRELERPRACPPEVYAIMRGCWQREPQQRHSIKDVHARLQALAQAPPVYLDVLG
# condition parameters: at 10 µM
metric name: residual activity (%)
Give bare numbers, in %.

Consider the following illustrative entries.
substance smiles: COc1cc(OC)c(/C=C2\C(=O)Nc3ccccc32)c(OC)c1
residual activity [%]: 59
--
substance smiles: CC(C)[C@H](CO)Nc1nc(Nc2cccc(Cl)c2)c2ncn(C(C)C)c2n1
residual activity [%]: 1
--
substance smiles: O=C1Nc2ccc3ncsc3c2/C1=C/c1c[nH]cn1
residual activity [%]: -1

Query string: Which residual activity reading was recorded for the molecule CCn1cnc2c(Nc3cccc(Cl)c3)nc(N[C@@H]3CCCC[C@@H]3N)nc21 ?
Result string: 1
